Test: qHTS assay to identify small molecule antagonists of the thyroid receptor (TR) signaling pathway - cell viability counter screen (AID 743064); note: nearly all actives have a fitted effect of over 50% in size
Details: GH3.TRE-Luc viability, CellTiter-Fluor, 24 h; series mostly up to 70.3 µM
Inconclusive results are not listed. Calls of active or inactive are those of the source. Calls come from the whole dose curve; as a rule, active = well fitted cell-killing curve with a large enough effect in the repeat runs; inconclusive = weak or mixed curves, or effect the other way; inactive = no such curve, though single readings can be large or run the other way.
Outcome (select one): active, inactive

{"compound": "O=Cc1ccc2c(c1)OCO2", "class_label": "inactive"}
{"compound": "CC(C)(C)c1cc([N+](=O)[O-])cc([N+](=O)[O-])c1O", "class_label": "active"}

Q) What did this assay record as the result for "O=NN1CCCCCC1" ?
A) inactive

Q) Test call for this compound, please: "NCCCNCCCN"
A) active

Q) Hi, do you know how "CCCCCCC#N" came out in this test?
A) inactive

Q) For "N#C/C(N)=C(/N)C#N" , what call appears in the results of this test?
A) inactive

Q) Dear colleague, could you share the recorded outcome for "CCBr" when you have a moment?
A) inactive

###

Assay: qHTS assay to identify small molecule antagonists of the androgen receptor (AR) signaling pathway using the MDA cell line - cell viability counter screen (AID 743041; note: nearly all actives have a fitted effect of over 45% in size; note: potency is the fitted concentration of half-maximal effect)
Conditions: MDA-kb2 viability, CellTiter-Fluor, 16 h, cells co-treated with R1881 androgen agonist; series mostly up to 70.3 µM
Records with an inconclusive call do not appear. The source made the active and inactive calls. The call rests on the fitted dose curve; in most records, active means well fitted cell-killing curve with a large enough effect in the repeat runs; inconclusive means weak or mixed curves, or effect the other way; inactive means flat fitted curve, though single readings scatter.
assay_metric: Potency

{"compound": "CCOc1ccc(C(C)(C)COCc2cccc(Oc3ccccc3)c2)cc1", "Potency": "inactive"}
{"compound": "CC1CC(CC2CCC(N)C(C)C2)CCC1N (configuration not stated)", "Potency": "31.1 µM (active)"}
{"compound": "C=CC(=O)OC(C)(C)C", "Potency": "inactive"}
{"compound": "COC1=CC(=O)O[C@@H](CCc2ccccc2)C1", "Potency": "inactive"}
{"compound": "COC(=O)C(C)N(C(=O)Cc1ccccc1)c1c(C)cccc1C (configuration not stated)", "Potency": "inactive"}
{"compound": "CN1C(=O)C(O)N=C(c2ccccc2)c2cc(Cl)ccc21 (configuration not stated)", "Potency": "inactive"}

Q) Quick check: Potency of "O=Cc1ccc2c(c1)OCO2" ?
A) inactive

###

Test: qHTS assay to identify small molecule agonists of the constitutive androstane receptor (CAR) signaling pathway - cell viability counter screen (AID 1224836); note: nearly all actives have a fitted effect of over 45% in size
Settings: HepG2-CYP2B6-hCAR viability, CellTiter-Fluor, 23 h, PK11195 added to every well; series mostly up to 92.4 µM
Inconclusive results are not listed. Calls of active or inactive are those of the source. Calls follow the shape of the dose curve; as a rule, active = well fitted cell-killing curve with a large enough effect in the repeat runs; inconclusive = weak or mixed curves, or effect the other way; inactive = flat fitted curve, though single readings scatter.
In this exercise, the only acceptable responses are active, inactive

Answered cases to consult:
{"compound": "Cc1cc(=O)[nH]o1", "class_label": "inactive"}
{"compound": "Cn1cc[n+](C)c1 (tested in a mixture with another compound)", "class_label": "inactive"}
{"compound": "NC(=O)C(Cl)(Cl)Cl", "class_label": "inactive"}
{"compound": "ClCc1ccccc1", "class_label": "inactive"}

Q) Tell me the recorded outcome of this test for "CCOP(=S)(OCC)Oc1cc(Cl)c(Br)cc1Cl" .
A) inactive

Q) // param item: "CN(N=O)c1ccc([N+](=O)[O-])cc1" ; yields the recorded call
A) inactive

Q) What is the recorded call for this compound in the test? ClCC(Br)CBr (configuration not stated)
A) inactive

Q) Recorded test call requested for "O=C(CBr)Nc1ccc(Cl)cc1C(=O)c1ccccc1F"
A) inactive

Q) Please indicate how the test categorized "O=C(NCc1cccnc1)Nc1ccc([N+](=O)[O-])cc1" .
A) inactive

Q) Tell me the assay call for "CCCCCCCCCC(=O)O[C@H]1CC[C@H]2[C@@H]3CCC4=CC(=O)CC[C@@H]4[C@H]3CC[C@]12C" please.
A) inactive

Q) Dear colleague, could you share the recorded outcome for CNP(=O)(OC)Oc1ccc(C(C)(C)C)cc1Cl (configuration not stated) when you have a moment?
A) inactive
